# STUDY_TARGET: TDP-43 1-260 (Homo sapiens, UniProt Q13148)
# Sequence (Q13148 1-260): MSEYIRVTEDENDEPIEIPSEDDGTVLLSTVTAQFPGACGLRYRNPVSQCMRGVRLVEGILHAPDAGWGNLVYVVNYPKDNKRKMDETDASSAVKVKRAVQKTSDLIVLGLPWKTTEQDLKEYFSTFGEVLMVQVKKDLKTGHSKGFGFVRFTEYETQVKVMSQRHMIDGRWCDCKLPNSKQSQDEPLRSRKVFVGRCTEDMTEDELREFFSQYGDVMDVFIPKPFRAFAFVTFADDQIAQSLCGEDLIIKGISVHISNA
# TEST_DETAILS: TDP-43 alpha-screen assay with bt-TAR32
# Assay type: binding
# EXPERIMENTAL_CONTEXT: bt-TAR32 0.125 nM; 3 h at room temperature; read-out: Activity (μM) in the TDP-43-DNA alpha-screen assay
MEASUREMENT_LABEL: log10 IC50 (log10 of the value in µM)

MOLECULE: COc1ccc(-c2cc(NCC(F)(F)CN)cc(-c3ccc(N4CCN(C)CC4)cc3)n2)cc1
log10 IC50: 0.17

MOLECULE: COc1cc2c(NCCCN(C)C)ccnc2cc1OCCN1CCCC1
log10 IC50: -0.72

MOLECULE: COc1ccc(-c2cc(NCCCN3CCC(CN)CC3)cc(-c3ccc(N4CCNCC4)cc3)n2)cc1
log10 IC50: -1.15

MOLECULE: COc1ccc(-c2cc(NCCCN(C)CCCN)cc(-c3ccc(N4CCCCC4)cc3)n2)cc1
log10 IC50: -0.13

MOLECULE: COc1ccc(-c2cc(NCC3CCN(C4CCNCC4)C3)cc(-c3ccc(N4CCN(C)CC4)cc3)n2)cc1 (stereo not shown)
log10 IC50: -1.10

MOLECULE: COc1ccc(-c2cc(NCCCN3CCC(CN)C3)cc(-c3ccc(N4CCNCC4)cc3)n2)cc1 (stereo not shown)
log10 IC50: -1.00

MOLECULE: COc1ccc(-c2cc(NCCCN(C)CCCN)cc(OCCN3CCCC3)n2)cc1
log10 IC50: -0.80

MOLECULE: COc1ccc(-c2cc(NCCCN)cc(-c3ccc(N4CCNCC4)cc3)n2)cc1
log10 IC50: -0.92

MOLECULE: COc1ccc(-c2cc(NCCCN(C)CCCN)cc(-c3ccc(N4CCN(C)C(F)C4)cc3)n2)cc1 (stereo not shown)
log10 IC50: -0.64

MOLECULE: COc1ccc(-c2cc(NCCCN(C)CCCN)cc(-c3ccc(N4CCNCC4)cc3)n2)cc1
log10 IC50: -1.52

MOLECULE: COc1ccc(-c2cc(/N=N\C3CCNCC3)cc(-c3ccc(N4CCNCC4)cc3)n2)cc1
log10 IC50: 0.17

MOLECULE: COc1ccc(-c2cc(NC3CCN(CC4CCNC4)CC3)cc(-c3ccc(N4CCNCC4)cc3)n2)cc1 (stereo not shown)
log10 IC50: -0.92

MOLECULE: COc1ccc(-c2cc(NCCCN(C)C)cc(-c3cccc(OCCN4CCCC4)c3)n2)cc1
log10 IC50: -0.80

MOLECULE: COc1ccc(-c2cc(NCC3CCN(CC4CNC4)C3)cc(-c3ccc(N4CCN(C)CC4)cc3)n2)cc1 (stereo not shown)
log10 IC50: -0.85

MOLECULE: COc1ccc(-c2cc(NC3CCN(CCCN)CC3)cc(-c3ccc(N4CCN(C)CC4)cc3)n2)cc1
log10 IC50: -1.40

MOLECULE: COc1ccc(-c2cc(NCCCN(C)CCCN)cc(-c3c(C)noc3C)n2)cc1
log10 IC50: 0.67

MOLECULE: COc1ccc(-c2cc(NCCCN(C)CCCN)nc(-c3ccc(N4CCNCC4)cc3)n2)cc1
log10 IC50: -0.70

MOLECULE: COc1ccc(-c2cc(NC3CCN(CC4CNC4)CC3)cc(-c3ccc(N4CCN(C)CC4)cc3)n2)cc1
log10 IC50: -1.22

MOLECULE: COc1ccc(-c2cc(NC3(CCN)CC3)cc(-c3ccc(N4CCNCC4)cc3)n2)cc1
log10 IC50: 0.55

MOLECULE: COc1ccc(-c2cc(NCCCN(C)C)cc(-c3ccc(N4CCN(C)CC4)cc3)n2)cc1
log10 IC50: -0.68

MOLECULE: COc1ccc(-c2cc(N(C)C3CCNCC3)cc(-c3ccc(N4CCNCC4)cc3)n2)cc1
log10 IC50: -0.48

MOLECULE: COc1ccc(-c2cc(NCCCN(C)CCCN)cc(-c3cccc(N4CCNCC4)c3)n2)cc1
log10 IC50: -1.30
